Measured values drawn from paper PMC12818745 for this set.

STUDY_SYSTEM: eeAChE (Electrophorus electricus AChE) (Electrophorus electricus)
RUN_DESCRIPTION: Cholinesterase inhibition assay (modified Ellman's method), eeAChE
Format: biochemical
STUDY_CONDITIONS: mean ± SEM, n = 3; n.a = nonactive; IC50 determined only if inhibition higher than 50% at 20 μM
What pIC50 was measured for each of the following?
Units for pIC50: none; it is -log10 of a concentration expressed in mol/L.

Enquiry: Entry under review: Cc1ccc(C#CCOc2ccccc2/C=C/c2cc(=O)c3ccccc3o2)cc1 [Compound 7o] . Reported pIC50?
Return: 5.54

Enquiry: Lookup O=c1c2ccccc2oc2cc3c(cc12)COc1ccccc1-3 [Compound 11a, 6H,8H-Chromeno[3,4-b]xanthen-8-one]
Return: 5.68

Enquiry: Lookup C#CCN(CC#C)c1ccccc1/C=C/c1cc(=O)c2ccccc2o1 [Compound 10]
Return: 5.06

Enquiry: Lookup C#CCOc1ccccc1/C=C/c1cc(=O)c2ccc(OC)c(OC)c2o1 [Compound 7d]
Return: 5.62

Enquiry: Lookup C#CCOc1ccccc1/C=C/c1cc(=O)c2ccccc2o1 [Compound 7a]
Return: 5.02

Enquiry: Lookup COc1ccc2c(=O)c3cc4c(cc3oc2c1)-c1ccccc1OC4 [Compound 11b]
Return: 5.41

###

What IC50 was measured for each of the following?
STUDY_SYSTEM: eqBChE (equine serum butyrylcholinesterase) (Equus caballus, UniProt P81908)
Construct: eqBChE (equine serum butyrylcholinesterase)
Sequence (P81908 whole entry): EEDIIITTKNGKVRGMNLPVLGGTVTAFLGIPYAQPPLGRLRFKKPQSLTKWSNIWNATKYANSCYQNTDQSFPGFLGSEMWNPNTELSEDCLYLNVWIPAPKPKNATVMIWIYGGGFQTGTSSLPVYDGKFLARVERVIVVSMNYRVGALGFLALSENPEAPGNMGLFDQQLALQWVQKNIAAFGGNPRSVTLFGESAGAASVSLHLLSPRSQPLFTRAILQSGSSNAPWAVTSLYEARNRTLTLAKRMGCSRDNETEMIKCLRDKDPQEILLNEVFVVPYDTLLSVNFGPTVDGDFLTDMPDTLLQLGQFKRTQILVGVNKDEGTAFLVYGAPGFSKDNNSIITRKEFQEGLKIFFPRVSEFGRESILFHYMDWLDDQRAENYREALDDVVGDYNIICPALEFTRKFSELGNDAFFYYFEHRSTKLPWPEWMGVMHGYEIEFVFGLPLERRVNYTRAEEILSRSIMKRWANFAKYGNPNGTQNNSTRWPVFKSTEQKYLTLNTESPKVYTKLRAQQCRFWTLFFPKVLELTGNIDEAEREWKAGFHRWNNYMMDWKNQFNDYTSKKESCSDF
RUN_DESCRIPTION: Cholinesterase inhibition assay (modified Ellman's method), eqBChE
The number alone won't do; follow it with the unit.

Enquiry: API: value(readout= IC50, system= eqBChE (equine serum butyrylcholinesterase) (Equus caballus, UniProt P81908), query= COc1cc(OC)c2c(=O)c3cc4c(cc3oc2c1)-c1ccccc1OC4 [Compound 11e] )
Return: 9.4 µM

Enquiry: Lookup O=c1c2ccccc2oc2cc3c(cc12)COc1ccc(OC(F)(F)F)cc1-3 [Compound 11h]
Return: 6.2 µM

Enquiry: Lookup COc1ccc2c(c1)-c1cc3oc4cccc(OC)c4c(=O)c3cc1CO2 [Compound 11m]
Return: 7.3 µM

Enquiry: Lookup COc1ccc2c(=O)c3cc4c(cc3oc2c1)-c1cc(Cl)cc(Br)c1OC4 [Compound 11s]
Return: 7 µM

Enquiry: Lookup COc1ccc2c(c1)-c1cc3oc4cc(OC)ccc4c(=O)c3cc1CO2 [Compound 11l]
Return: 9 µM

Enquiry: Lookup COc1ccc2c(=O)c3cc4c(cc3oc2c1OC)-c1ccccc1OC4 [Compound 11d]
Return: 7.1 µM

Enquiry: Lookup C#CCN(CC#C)c1ccccc1/C=C/c1cc(=O)c2ccccc2o1 [Compound 10]
Return: 5.9 µM

Enquiry: Lookup O=c1c2ccccc2oc2cc3c(cc12)COc1c(Br)cc(Cl)cc1-3 [Compound 11k]
Return: 6.2 µM

Enquiry: Lookup COc1ccc2c(=O)c3cc4c(cc3oc2c1)-c1cc(Cl)ccc1OC4 [Compound 11r]
Return: 6.3 µM

Enquiry: Lookup COc1ccc2c(c1)-c1cc3oc4ccccc4c(=O)c3cc1CO2 [Compound 11f]
Return: 6.1 µM

###

STUDY_SYSTEM: eeAChE (Electrophorus electricus AChE) (Electrophorus electricus)
RUN_DESCRIPTION: Cholinesterase inhibition assay (modified Ellman's method), eeAChE
Assay type: biochemical
STUDY_CONDITIONS: ratio eqBChE IC50/eeAChE IC50
Experimental: Compound series A and B were initially screened for their cholinesterase activity against eeAChE (Electrophorus electricus AChE) and eqBChE (equine serum butyrylcholinesterase), using an adaptation of the Ellman’s method. […]. […] The inhibitory activity of the synthesized compounds toward eeAChE and eqBChE was evaluated spectrophotometrically through a 96-well microplate modified Ellman’s method. […]
What SI eeAChE was measured for each of the following?
Please respond with just the number, no unit label.

Enquiry: Entry under review: C#CCN(CC#C)c1ccccc1/C=C/c1cc(=O)c2ccccc2o1 . Reported SI eeAChE?
Return: 0.68

Enquiry: Lookup COc1ccc2c(=O)c3cc4c(cc3oc2c1)-c1cc(Cl)ccc1OC4 [Compound 11r]
Return: 3.00

Enquiry: Lookup O=c1c2ccccc2oc2cc3c(cc12)COc1ccc(OC(F)(F)F)cc1-3 [Compound 11h]
Return: 1.55

Enquiry: Lookup O=c1c2ccccc2oc2cc3c(cc12)COc1c(Br)cc(Cl)cc1-3 [Compound 11k]
Return: 1.48

Enquiry: Lookup COc1ccc2c(c1)-c1cc3oc4ccccc4c(=O)c3cc1CO2 [Compound 11f]
Return: 0.88

Enquiry: Lookup COc1ccc2c(=O)c3cc4c(cc3oc2c1)-c1cc(Cl)cc(Br)c1OC4 [Compound 11s]
Return: 4.12

Enquiry: Lookup COc1ccc2c(c1)-c1cc3oc4cc(OC)ccc4c(=O)c3cc1CO2 [Compound 11l]
Return: 1.88

###

STUDY_SYSTEM: Aβ42 aggregation (Homo sapiens, UniProt P05067)
Construct: expressed in transfected cells; host or cells: E. coli BL21 (DE3), pET vector
Sequence (P05067 672-713): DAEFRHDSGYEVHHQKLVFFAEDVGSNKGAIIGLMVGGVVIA
RUN_DESCRIPTION: Thioflavin S assay of Aβ42 aggregation in E. coli cells overexpressing Aβ42
Type: cell-based, Escherichia coli
STUDY_CONDITIONS: read-out: Aβ42 inhibition %
ENDPOINT: inhibition at 50 µM
The number alone won't do; follow it with the unit.

Enquiry: API: value(readout= inhibition at 50 µM, system= Aβ42 aggregation (Homo sapiens, UniProt P05067), query= O=c1c2ccccc2oc2cc3c(cc12)COc1ccc2ccccc2c1-3 [Compound 12a] )
Return: 43%

Enquiry: Lookup O=c1cc(/C=C/c2ccccc2OCC#Cc2ccccc2)oc2ccccc12
Return: 28%

Enquiry: Lookup C#CCOc1ccc(OC(F)(F)F)cc1/C=C/c1cc(=O)c2ccccc2o1
Return: 11%

Enquiry: Lookup COc1ccc2c(c1)-c1cc3oc4cccc(OC)c4c(=O)c3cc1CO2 [Compound 11m]
Return: 30%

Enquiry: Lookup Cc1ccc(C#CCOc2ccccc2/C=C/c2cc(=O)c3ccccc3o2)cc1
Return: 37%

###

What IC50 was measured for each of the following?
STUDY_SYSTEM: eeAChE (Electrophorus electricus AChE) (Electrophorus electricus, UniProt O42275)
Sequence (O42275 24-633): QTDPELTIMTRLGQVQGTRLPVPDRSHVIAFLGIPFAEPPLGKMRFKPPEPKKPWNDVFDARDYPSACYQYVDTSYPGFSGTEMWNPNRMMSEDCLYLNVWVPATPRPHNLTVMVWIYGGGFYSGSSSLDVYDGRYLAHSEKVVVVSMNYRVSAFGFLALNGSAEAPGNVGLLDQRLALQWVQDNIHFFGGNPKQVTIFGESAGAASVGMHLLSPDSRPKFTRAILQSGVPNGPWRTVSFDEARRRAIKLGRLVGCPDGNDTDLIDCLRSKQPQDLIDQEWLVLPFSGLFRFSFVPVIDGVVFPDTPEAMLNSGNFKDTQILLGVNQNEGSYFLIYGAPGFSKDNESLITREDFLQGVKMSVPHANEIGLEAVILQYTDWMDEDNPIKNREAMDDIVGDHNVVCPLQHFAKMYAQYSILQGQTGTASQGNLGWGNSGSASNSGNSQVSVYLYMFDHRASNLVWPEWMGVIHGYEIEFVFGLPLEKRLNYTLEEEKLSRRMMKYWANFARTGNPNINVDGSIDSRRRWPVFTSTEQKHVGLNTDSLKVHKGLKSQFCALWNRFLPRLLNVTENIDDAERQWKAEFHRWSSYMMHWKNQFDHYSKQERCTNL
RUN_DESCRIPTION: Cholinesterase inhibition assay (modified Ellman's method), eeAChE
Format: biochemical
Please reply with the bare figure in µM and do not write the unit itself.

Enquiry: API: value(readout= IC50, system= eeAChE (Electrophorus electricus AChE) (Electrophorus electricus, UniProt O42275), query= COc1ccc2c(c1)-c1cc3oc4cc(OC)ccc4c(=O)c3cc1CO2 [Compound 11l] )
Return: 4.8

Enquiry: Lookup COc1ccc2c(=O)c3cc4c(cc3oc2c1)-c1cc(Cl)cc(Br)c1OC4 [Compound 11s]
Return: 1.7

Enquiry: Lookup COc1ccc2c(c1)-c1cc3oc4ccccc4c(=O)c3cc1CO2 [Compound 11f]
Return: 6.9

Enquiry: Lookup COc1ccc2c(=O)c3cc4c(cc3oc2c1)-c1cc(F)ccc1OC4 [Compound 11q]
Return: 4.3

Enquiry: Lookup O=c1c2ccccc2oc2cc3c(cc12)COc1ccc(OC(F)(F)F)cc1-3 [Compound 11h]
Return: 4

Enquiry: Lookup COc1ccc2c(=O)c3cc4c(cc3oc2c1)-c1cc(Cl)ccc1OC4 [Compound 11r]
Return: 2.1

Enquiry: Lookup O=c1c2ccccc2oc2cc3c(cc12)COc1c(Br)cc(Cl)cc1-3 [Compound 11k]
Return: 4.2

###

STUDY_SYSTEM: Aβ42 aggregation (Homo sapiens)
Construct: expressed in transfected cells; host or cells: E. coli BL21 (DE3), pET vector
RUN_DESCRIPTION: Thioflavin S assay of Aβ42 aggregation in E. coli cells overexpressing Aβ42
Type: cell-based, Escherichia coli
STUDY_CONDITIONS: read-out: Aβ42 inhibition %
Labels assigned by inhibition at 50 µM range: low bracket (below 30%), middle bracket (30% to below 40%), high bracket (40% or more)

Enquiry: Which category does the recorded inhibition at 50 µM put COc1ccc(C#CCOc2ccccc2/C=C/c2cc(=O)c3ccccc3o2)cc1 in?
Return: middle bracket

Enquiry: Lookup COc1ccc2c(=O)c3cc4c(cc3oc2c1)-c1cc(F)ccc1OC4 [Compound 11q]
Return: high bracket

Enquiry: Lookup C#CCOc1ccc2ccccc2c1/C=C/c1cc(=O)c2ccc(OC)cc2o1
Return: middle bracket

Enquiry: Lookup C#CCOc1ccccc1/C=C/c1cc(=O)c2ccc(OC)cc2o1
Return: low bracket

Enquiry: Lookup O=c1c2ccccc2oc2cc3c(cc12)COc1ccc(Cl)cc1-3 [Compound 11j]
Return: high bracket

Enquiry: Lookup C#CCOc1ccc(OC)cc1/C=C/c1cc(=O)c2ccccc2o1
Return: low bracket

Enquiry: Lookup C#CCOc1ccccc1/C=C/c1cc(=O)c2ccccc2o1
Return: middle bracket

Enquiry: Lookup C#CCOc1c(Br)cc(Cl)cc1/C=C/c1cc(=O)c2ccc(OC)cc2o1
Return: middle bracket
